These measurements were taken from patent US8580556B2.

- Tested on: tetA promoter (PtetA)-lacZ reporter in E. coli KM3
- Format: cell-based
- Run parameters: Table 4; rimsulfuron 20 μg/ml (20 ppm); 48 hrs at 30° C.
Measurement type: relative β-galactosidase activity, inducer Rs
Give your answer as a number; write no unit.

>>> measured_result("L1-31: library L1 hit, sulfonylurea-responsive TetR(B) variant (protein, Sulfonylurea responsive repressor L1-31) MGSRLDKSKVINSALELLNEVGIEGLTTRKLAQKLGVEQPTLYWHVKNKRALLDALAIEMLDRHATHFCPLEGESWQDFLRNNAKSMRCALLSHRDGAKVMLGTRATEKQYETVENRLAFLCQQGFSLENALYAVRAVHWFTLGCVLIDQEMQVAKEERETPTTDSMPPLLRQAYELYDHQGAEPAFLFGLELIICGLEKQLKCESGS")
0.4

// query Give the reported relative β-galactosidase activity, inducer Rs for this molecule. L1-22: library L1 hit, sulfonylurea-responsive TetR(B) variant, SEQ ID NO: 7 (protein, Sulfornylurea responsive repressor L1-22) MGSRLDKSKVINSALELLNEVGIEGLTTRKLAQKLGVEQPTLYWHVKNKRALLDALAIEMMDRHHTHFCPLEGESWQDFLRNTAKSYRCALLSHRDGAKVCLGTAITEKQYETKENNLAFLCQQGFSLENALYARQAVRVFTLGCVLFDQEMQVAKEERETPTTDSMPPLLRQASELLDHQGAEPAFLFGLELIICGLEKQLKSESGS
// result 0.1
